Exercise: for every item that follows, state its recorded % Biological activity (C2C12 cell) 100 nM.
# testedOn: androgen receptor (AR) (Homo sapiens, UniProt P10275)
# Construct: transfecting C2C12 cells with a plasmid containing full-length AR; expressed in transfected cells; host or cells: mouse myoblastic C2C12 cells (ATCC CRL-1772), transiently transfected with AR-FL in pcDNA 3.1(+)
# assayName: Test 1: androgen receptor transcriptional activation (2XIDR17-luciferase) assay in transfected C2C12 cells
# Format: cell-based
# assayContext: C2C12 cells; compound at 100 nM; relative to 1 μM DHT
Just the number in %, nothing appended.

# % Biological activity (C2C12 cell) 100 nM of Cc1c(N2C(=O)N(C)C3(CCC3)C2=O)ccc(C#N)c1Cl = 67

Given item Cc1noc(C)c1CN1C(=O)N(c2ccc(C#N)c(Cl)c2C)C(=O)C12CCCC2 , the value recorded as its % Biological activity (C2C12 cell) 100 nM is 3

For Cc1c(N2C(=O)N(CC(C)C)C3(CCCC3)C2=O)ccc(C#N)c1Cl the compound record lists % Biological activity (C2C12 cell) 100 nM as 11

Input Cc1c(N2C(=O)N(CC3CCOC3)C3(CCCC3)C2=O)ccc(C#N)c1Cl (stereo not drawn) . Output % Biological activity (C2C12 cell) 100 nM: 25

The recorded % Biological activity (C2C12 cell) 100 nM for entry Cc1c(N2C(=O)N(CCCF)C3(CCCC3)C2=O)ccc(C#N)c1Cl equals 27

For this compound ( Cc1ncc(CN2C(=O)N(c3ccc(C#N)c(Cl)c3C)C(=O)C23CCCC3)o1 ), measured % Biological activity (C2C12 cell) 100 nM is 20

Entry under test: Cc1c(N2C(=O)N(C)C3(CCCC3CO)C2=O)ccc(C#N)c1Cl (stereo not drawn) . Its % Biological activity (C2C12 cell) 100 nM was 28

Sure, the documented % Biological activity (C2C12 cell) 100 nM for Cc1c(N2C(=O)N(Cc3ncc(CO)o3)C3(CCCC3)C2=O)ccc(C#N)c1Cl is 26

Entry Cc1c(N2C(=O)N(C)C3(CCC(=O)C3)C2=O)ccc(C#N)c1Cl (stereo not drawn) — recorded % Biological activity (C2C12 cell) 100 nM = 9

====

# testedOn: androgen receptor (AR) (Homo sapiens, UniProt P10275)
# Construct: transfecting C2C12 cells with a plasmid containing full-length AR; expressed in transfected cells; host or cells: mouse myoblastic C2C12 cells (ATCC CRL-1772), transiently transfected with AR-FL in pcDNA 3.1(+)
# assayName: Test 1: androgen receptor transcriptional activation (2XIDR17-luciferase) assay in transfected C2C12 cells
# Format: cell-based
# assayContext: Biological activity (C2C12 cell) EC50 (nM), mouse myoblastic C2C12 cells transfected with full-length AR and 2XIDR17-luciferase
assayReadout: EC50 (nM)
Note: unit nM is implicit; provide only the numeric part.

For reference, reported EC50 for Cc1c(N2C(=O)N(CCF)C3(CCCC3)C2=O)ccc(C#N)c1Cl stands at 45.4

====

# testedOn: androgen receptor (AR) (Homo sapiens)
# Construct: transfecting C2C12 cells with a plasmid containing full-length AR; expressed in transfected cells; host or cells: mouse myoblastic C2C12 cells (ATCC CRL-1772), transiently transfected with AR-FL in pcDNA 3.1(+)
# assayName: Test 1: androgen receptor transcriptional activation (2XIDR17-luciferase) assay in transfected C2C12 cells
# Assay type: cell-based
# assayContext: mouse myoblastic C2C12 cells transfected with full-length AR and 2XIDR17-luciferase; read-out: Biological activity (C2C12 cell) EC50
assayReadout: EC50 (nM)
Output spec: scalar in nM, unitless text.

EC50 reported for this compound Cc1c(N2C(=O)N(Cc3cnco3)C3(CCCC3)C2=O)ccc(C#N)c1Cl : 25

The measured EC50 associated with Cc1c(N2C(=O)N(CCOCC#N)C3(CCCC3)C2=O)ccc(C#N)c1Cl reads 19.9

Item: Cc1c(N2C(=O)N(Cc3ccncc3)C3(CCCC3)C2=O)ccc(C#N)c1Cl | EC50: 30.7

The reported EC50 of the compound Cc1ccc(CN2C(=O)N(c3ccc(C#N)c(Cl)c3C)C(=O)C23CCCC3)cn1 was 11

// CCN1C(=O)N(c2ccc(C#N)c(Cl)c2C)C(=O)C12CCCC2 : EC50 value = 23.5

For record Cc1c(N2C(=O)N(C)C3(CCC(F)(F)C3)C2=O)ccc(C#N)c1Cl (stereo not drawn) the listed EC50 is 14.9

Noted for Cc1c(N2C(=O)N(C)[C@]3(CCC[C@@H]3F)C2=O)ccc(C#N)c1Cl : its EC50 reads 0.79

According to the records, this compound COC1N(c2ccc(C#N)c(Cl)c2C)C(=O)OC12CCCC2O (stereo not drawn) displays EC50 of 2590

For reference, reported EC50 for Cc1c(N2C(=O)N(C)C3(CCCC3O)C2O)ccc(C#N)c1Cl (mixture of isomers) stands at 930

The reported EC50 of the compound Cc1c(N2C(=O)N(CCOCCF)C3(CCCC3)C2=O)ccc(C#N)c1Cl was 17.8

EC50 reported for this compound Cc1c(N2C(=O)N(C)C3(CCCC3=O)C2=O)ccc(C#N)c1Cl (racemic) : 847

// EC50 lookup, compound = Cc1c(N2C(=O)N(CCCC#N)C3(CCCC3)C2=O)ccc(C#N)c1Cl , result: 26.5

Summary for this compound, Cc1c(N2C(=O)N(CCO)C3(CCCC3)C2=O)ccc(C#N)c1Cl : EC50 is 199

Reported EC50 ( Cc1c(N2C(=O)N(CCCCCC#N)C3(CCCC3)C2=O)ccc(C#N)c1Cl ) = 8.7

// sample Cc1cnc(CN2C(=O)N(c3ccc(C#N)c(Cl)c3C)C(=O)C23CCCC3)o1 , its EC50 was 8.9

Lab note: measured EC50 of Cc1c(N2C(=O)N(CCC#N)C3(CCCC3)C2=O)ccc(C#N)c1Cl was 169

Just so you know, measured EC50 for Cc1c(N2C(=O)N(CCCCC#N)C3(CCCC3)C2=O)ccc(C#N)c1Cl came out at 45

EC50 for Cc1c(N2C(=O)N(Cc3ccccn3)C3(CCCC3)C2=O)ccc(C#N)c1Cl is 48

====

Can you tell me pEC50 for the items I'm about to list?
# testedOn: androgen receptor (AR) (Homo sapiens)
# Construct: transfecting C2C12 cells with a plasmid containing full-length AR; expressed in transfected cells; host or cells: mouse myoblastic C2C12 cells (ATCC CRL-1772), transiently transfected with AR-FL in pcDNA 3.1(+)
# Sequence (P10275 1-920): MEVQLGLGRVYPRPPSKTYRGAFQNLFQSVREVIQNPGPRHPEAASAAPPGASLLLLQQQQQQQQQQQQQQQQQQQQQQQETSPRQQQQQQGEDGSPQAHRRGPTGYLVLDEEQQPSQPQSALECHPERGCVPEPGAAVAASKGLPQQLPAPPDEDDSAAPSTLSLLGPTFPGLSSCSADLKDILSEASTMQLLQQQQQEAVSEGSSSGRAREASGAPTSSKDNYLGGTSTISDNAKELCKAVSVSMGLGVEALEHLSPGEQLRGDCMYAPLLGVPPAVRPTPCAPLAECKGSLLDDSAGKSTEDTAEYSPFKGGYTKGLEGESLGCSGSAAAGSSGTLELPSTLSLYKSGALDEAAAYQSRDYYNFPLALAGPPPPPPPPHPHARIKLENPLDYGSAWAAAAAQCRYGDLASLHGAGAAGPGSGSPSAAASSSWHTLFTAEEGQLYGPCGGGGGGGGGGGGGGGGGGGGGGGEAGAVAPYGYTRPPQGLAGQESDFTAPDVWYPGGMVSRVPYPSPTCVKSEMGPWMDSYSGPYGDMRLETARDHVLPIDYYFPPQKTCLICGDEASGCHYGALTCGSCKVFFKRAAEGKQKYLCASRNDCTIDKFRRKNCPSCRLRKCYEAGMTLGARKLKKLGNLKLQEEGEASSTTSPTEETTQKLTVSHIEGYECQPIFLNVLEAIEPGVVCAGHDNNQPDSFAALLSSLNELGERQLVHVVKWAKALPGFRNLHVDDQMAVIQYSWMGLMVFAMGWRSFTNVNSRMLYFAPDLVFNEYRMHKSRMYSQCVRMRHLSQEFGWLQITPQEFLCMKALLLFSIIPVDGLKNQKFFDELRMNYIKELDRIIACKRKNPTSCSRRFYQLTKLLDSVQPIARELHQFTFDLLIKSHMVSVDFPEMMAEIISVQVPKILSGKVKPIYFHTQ
# assayName: Test 1: androgen receptor transcriptional activation (2XIDR17-luciferase) assay in transfected C2C12 cells
# Type: cell-based
# assayContext: mouse myoblastic C2C12 cells transfected with full-length AR and 2XIDR17-luciferase; read-out: Biological activity (C2C12 cell) EC50
Scale explanation: pEC50 corresponds to minus log10 of a concentration expressed in moles per litre.

Item: Cc1c(N2C(=O)N(CCc3ccncc3)C3(CCCC3)C2=O)ccc(C#N)c1Cl | pEC50: 6.69

Looking up Cc1c(N2CC3(CCCC3O)N(C)C2=O)ccc(C#N)c1Cl (centres unmarked) , I found its pEC50 recorded as 5.54

Entry Cc1cc(CN2C(=O)N(c3ccc(C#N)c(Cl)c3C)C(=O)C23CCCC3)no1 — recorded pEC50 = 8.22

So, Cc1c(N2C(=N)C3(CCCC3)N(C)C2=O)ccc(C#N)c1Cl ? Its pEC50 was 6.99

The recorded pEC50 for Cc1c(N2C(=O)N(Cc3ccc(C#N)cc3)C3(CCCC3)C2=O)ccc(C#N)c1Cl is 9.32

Lab note: measured pEC50 of COCCN1C(=O)N(c2ccc(C#N)c(Cl)c2C)C(=O)C12CCCC2 was 6.98

For reference, reported pEC50 for Cc1c(N2C(=O)N(C)C3(CCC(O)C3)C2=O)ccc(C#N)c1Cl (centres unmarked) stands at 7.28

Measured pEC50 of Cc1c(N2C(=O)N(C)C3(CCCC3)C2=O)ccc(C#N)c1Cl : 9.39

Data provenance: patent US20150299120A1
